// provenance: patent US20250042940A1

Molecular target: T1, 14-3-3ε protein (purified, as used in DSF and in the SPR of the Pmb peptide) (UniProt P62258 1-255)
T1 sequence (looked up): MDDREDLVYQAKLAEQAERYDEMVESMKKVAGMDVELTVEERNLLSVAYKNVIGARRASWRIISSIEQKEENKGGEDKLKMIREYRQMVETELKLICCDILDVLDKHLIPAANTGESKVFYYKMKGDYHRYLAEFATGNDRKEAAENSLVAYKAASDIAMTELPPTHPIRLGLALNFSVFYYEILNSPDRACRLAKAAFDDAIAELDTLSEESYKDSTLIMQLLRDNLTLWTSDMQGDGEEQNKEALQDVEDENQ
Experiment: SPR
Non-standard residues stand in square brackets, D forms with d. Pmb = 4-(di-t-butylphosphonomethyl)-3-methylbutyric acid, phosphonate replacement of phospho-Thr
reportedMetric: pKd
Keep it numeric: pKd is minus log10 of the concentration in mol/L.

[ask] Recorded pKd for Ac-RTKSR[Pmb]WAG-NH2 (Synthetic analog of the pT peptide (CDC25A Thr507 site) in which the phospho-Thr is replaced by Pmb; also called phosphono-peptide) [first targeting peptide with a Pmb residue, Ac-Arg-Thr-Lys-Ser-Arg-Pmb-Trp-Ala-Gly-NH2] , please?
[reply] 8.05
